Documented Excess HSA synergy score across a set of molecules
System: PEO-1
Assay: Excess HSA synergy score (sum over dose matrix of excess over highest single agent) (score (summed % response)); higher = less synergy / more antagonism (negative = synergy)
Details: 72 h; read-out: viability/apoptosis luminescence (CellTiter-Glo or Caspase3-Glo / not stated per table); matrix design: 6x6, 5-fold dilutions (primary screen)
Structures can show the parent of a compound that is named as a salt. Over roughly 1,500 compounds, “Excess HSA synergy score (sum over dose matrix of excess over highest single agent)” has its median near 43; the lowest 2% begin near -900. This excerpt belongs to a sample that is enriched for the lowest values.

Example cases with answers are listed next.
CN1CC2c3ccccc3Oc3ccc(Cl)cc3C2C1 (centres undefined) [Asenapine maleate] + CC[C@H](NC(=O)[C@H](C)NC)C(=O)N1C[C@@H](O)C[C@H]1Cc1c(-c2[nH]c3cc(F)ccc3c2C[C@@H]2C[C@H](O)CN2C(=O)[C@H](CC)NC(=O)[C@H](C)NC)[nH]c2cc(F)ccc12 [Birinapant]	164
NC(=O)c1cnc(-c2ccc(C3(N)CCC3)cc2)c(-c2ccccc2)c1 + CC[C@H](NC(=O)[C@H](C)NC)C(=O)N1C[C@@H](O)C[C@H]1Cc1c(-c2[nH]c3cc(F)ccc3c2C[C@@H]2C[C@H](O)CN2C(=O)[C@H](CC)NC(=O)[C@H](C)NC)[nH]c2cc(F)ccc12 [Birinapant]	61.1
CCCCN1CCC(CNC(=O)c2c3n(c4ccccc24)CCCO3)CC1 [Piboserod hydrochloride] + CC[C@H](NC(=O)[C@H](C)NC)C(=O)N1C[C@@H](O)C[C@H]1Cc1c(-c2[nH]c3cc(F)ccc3c2C[C@@H]2C[C@H](O)CN2C(=O)[C@H](CC)NC(=O)[C@H](C)NC)[nH]c2cc(F)ccc12 [Birinapant]	-0.918

Given item O=C(O)c1ccccc1C(=O)Nc1ccc(-c2ccccc2)cc1 [Kartogenin] + CC[C@H](NC(=O)[C@H](C)NC)C(=O)N1C[C@@H](O)C[C@H]1Cc1c(-c2[nH]c3cc(F)ccc3c2C[C@@H]2C[C@H](O)CN2C(=O)[C@H](CC)NC(=O)[C@H](C)NC)[nH]c2cc(F)ccc12 [Birinapant] , the value recorded as its Excess HSA synergy score is 460

---

Documented Excess HSA synergy score across a set of molecules
Test system: PEO-1
Experiment: Excess HSA synergy score (sum over dose matrix of excess over highest single agent) (score (summed % response)); higher = less synergy / more antagonism (negative = synergy)
Conditions: 72 h; read-out: viability/apoptosis luminescence (CellTiter-Glo or Caspase3-Glo / not stated per table); matrix design: 6x6, 5-fold dilutions (primary screen)
In all, about 1,500 compounds were measured (“Excess HSA synergy score (sum over dose matrix of excess over highest single agent)”: median about 43, lowest 2% from about -900 on). The entries come from a sample that favours the lowest values as a whole.
Enter the number alone.

Example cases with answers are listed next.
Cc1cc(Nc2cc(CN3CCOCC3)c3nc(C)c(Cc4ccc(Cl)cc4F)n3n2)n[nH]1 [Gandotinib] + CC[C@H](NC(=O)[C@H](C)NC)C(=O)N1C[C@@H](O)C[C@H]1Cc1c(-c2[nH]c3cc(F)ccc3c2C[C@@H]2C[C@H](O)CN2C(=O)[C@H](CC)NC(=O)[C@H](C)NC)[nH]c2cc(F)ccc12	66.5
CC1(C)OC2=C(C(=O)c3ccccc3C2=O)[C@H](NCc2ccccc2)[C@@H]1O + CC[C@H](NC(=O)[C@H](C)NC)C(=O)N1C[C@@H](O)C[C@H]1Cc1c(-c2[nH]c3cc(F)ccc3c2C[C@@H]2C[C@H](O)CN2C(=O)[C@H](CC)NC(=O)[C@H](C)NC)[nH]c2cc(F)ccc12	60.3

Item CCc1cc(-c2n[nH]c(C)c2-c2ccc3c(c2)OCCO3)c(O)cc1O + CC[C@H](NC(=O)[C@H](C)NC)C(=O)N1C[C@@H](O)C[C@H]1Cc1c(-c2[nH]c3cc(F)ccc3c2C[C@@H]2C[C@H](O)CN2C(=O)[C@H](CC)NC(=O)[C@H](C)NC)[nH]c2cc(F)ccc12 was tested on PEO-1; the reported Excess HSA synergy score is 405
